- experimental.protocol: modulators of S6 phosphorylation in cells, primary screen, cell-based, A549, cytoblot, luminescence, serum-stimulated (AID 1158);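 further: serum-stimulated A549 lung adenocarcinoma cells; signal is phosphorylated S6 detected by cytoblot immunostaining with HRP secondary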
- particulars: A549 phospho-S6 cytoblot, 5 h, higher = more signal
Is z-score at least 0.06? Then T. If not, F.

>  <smiles.record>
C=C(COC)C(=O)CC[C@@H](OC(=O)c1cccnc1)c1ccccc1OCCO

>  <classification>
F

$$$$

Query compound follows.
# input I'd appreciate it if you could say whether COc1ccc(C#Cc2ccc3c(c2)[C@]2(C(=O)N3)[C@H](c3ccc(OCCO)cc3)N3[C@H](c4ccccc4)[C@H](c4ccccc4)OC(=O)[C@H]3[C@@H]2C(=O)N2CCc3cc(OC)c(OC)cc3C2)cc1 has z-score at least equal to 0.06.
# output F
